Test system: vascular cell adhesion molecule-1 (VCAM-1) expression
Experiment: VCAM-1 ELISA (inflammation assay in HAECs)
Type: cell-based
Details: HAEC cell layers; TNFα (0.5 ng/mL) or glycated human serum albumin (300 μg/mL), 18-24 h; read-out: IC50, VCAM-1 enzyme-linked immunosorbent assay
pIC50: −log10 of the molar value.
parameterMeasured: pIC50

givenSmiles | parameterMeasured | experimentalResult
COc1cc(Nc2cc(-c3ccc(F)cc3)nc3ccccc23)ccc1Cl | pIC50 | 5.46
CNS(=O)(=O)c1ccc(Nc2cc(-n3ccc(C(F)(F)F)n3)c3ccccc3n2)cc1 | pIC50 | 6.21
CNC(=O)c1ccc(Nc2cc(-n3ccc(C(F)(F)F)n3)c3ccccc3n2)cc1 | pIC50 | 5.68

A: CS(=O)(=O)c1ccc(Nc2cc(-n3ccc(C(F)(F)F)n3)c3ccccc3n2)cc1
B: COc1ccc(Nc2cc(-c3ccc(F)cc3)nc3ccccc23)cc1Cl
Please indicate which entry, A or B , has the lower recorded pIC50 value. Record your answer as the label of the chosen record.
A

a: FC(F)(F)Oc1ccc(Nc2cc(-n3ccc(C(F)(F)F)n3)c3ccccc3n2)cc1
b: FC(F)(F)c1ccn(-c2cc(-c3ccc4c(c3)OCO4)nc3ccccc23)n1
Smaller pIC50 value? Options are a and b Your answer should be the label of the entry you select.
b
(b: 5.30, a: 6.00)

----------
Test system: human aortic smooth muscle cells
Experiment: Smooth muscle cell proliferation assay
Type: cell-based
Conditions: human aortic SMC, growth medium containing serum, 24 h post treatment; read-out: Effect: concentration giving 50% inhibition of smooth muscle cell proliferation
The entries below are paired with their reported IC50.
// note: answer is a bare numeric in nM

molecule | targetEntity | unitSymbol | IC50
CSc1ccc(-c2cc(-n3ccc(C(F)(F)F)n3)c3ccccc3n2)cc1 [E 16] | human aortic smooth muscle cells | nM | 1160
FC(F)(F)Oc1ccc(-c2cc(-n3ccc(C(F)(F)F)n3)c3ccccc3n2)cc1 [E 18] | human aortic smooth muscle cells | nM | 2330

Now look at this one.
Report IC50 for Fc1ccc(-c2cc(-n3ccc(C(F)(F)F)n3)c3ccccc3n2)cc1 [E 11] please.
1000

----------
Listing of recorded melting point by entry.

Answered cases to consult:
compound | experimentalResult
FC(F)(F)c1ccn(-c2cc(N3CCOCC3)nc3ccccc23)n1 [E 20] | 118 to 120 °C
Oc1ccc(-c2nc(-c3ccccc3)nc3ccccc23)c(O)c1 [E 4] | 178 to 180 °C
COc1cc(Nc2cc(-c3ccc(F)cc3)nc3ccccc23)ccc1Cl [E 13] | 274 to 276 °C
COc1ccc(Nc2nc(-c3ccc(F)cc3)cc3ccc(C)cc23)cc1Cl [E 6] | 154 to 156 °C
Oc1ccc(-c2nc(-c3ccncc3)nc3ccccc23)c(O)c1 [E 3] | 280 to 282 °C

Please report the recorded melting point for Clc1ccc2c(ccn2-c2cc(-c3ccccc3)nc3ccccc23)c1 [E 10] .
148 to 150 °C

For CS(=O)(=O)c1ccc(-c2cc(-n3ccc(C(F)(F)F)n3)c3ccccc3n2)cc1 [E 17] then?
194 to 196 °C

----------
We begin with a simple list: items and their reported melting point.

Record excerpt, results attached:
givenSmiles | experimentalResult
FC(F)(F)c1ccn(-c2cc(-c3ccc4c(c3)OCO4)nc3ccccc23)n1 | 98 to 100 °C
COc1ccc(Nc2nc(-c3ccncc3)nc3ccccc23)cc1Cl | > 220 °C

Attention now shifts to the item below.
So what's the measured melting point for this one? `CNC(=O)c1ccc(Nc2cc(-n3ccc(C(F)(F)F)n3)c3ccccc3n2)cc1`
250 to 252 °C
